TARGET_OF_ASSAY: UniProt P04150
TEST_SUMMARY: Displacement of [3H]dexamethasone from human recombinant GR
pKi: −log10 of the molar value.

>  <MOLECULE>
O=S(=O)(c1ccc(N2CCOCC2)cc1)N1CCC2=Cc3c(cnn3-c3ccc(F)cc3)CC2(Cc2ccc(F)cc2)C1 (racemic)

>  <pKi>
8.89

$$$$
>  <MOLECULE>
CC(C)(C)c1ccc(S(=O)(=O)N2CCC3=Cc4c(cnn4-c4ccc(F)cc4)C[C@]3(C)C2)cc1

>  <pKi>
8.92

$$$$
>  <MOLECULE>
CC(C)(C)c1ccc(S(=O)(=O)N2CCC3=Cc4c(cnn4-c4ccc(F)cc4)C[C@]3(COCCO)C2)cc1

>  <pKi>
9.10

$$$$
>  <MOLECULE>
CC(C)(C)c1ccc(S(=O)(=O)N2CCC3=Cc4c(cnn4-c4ccc(F)cc4)C[C@]3(CO)C2)cc1

>  <pKi>
8.80

$$$$

====

TARGET_OF_ASSAY: Glucocorticoid receptor (Homo sapiens, UniProt P04150)
Sequence (P04150 whole entry): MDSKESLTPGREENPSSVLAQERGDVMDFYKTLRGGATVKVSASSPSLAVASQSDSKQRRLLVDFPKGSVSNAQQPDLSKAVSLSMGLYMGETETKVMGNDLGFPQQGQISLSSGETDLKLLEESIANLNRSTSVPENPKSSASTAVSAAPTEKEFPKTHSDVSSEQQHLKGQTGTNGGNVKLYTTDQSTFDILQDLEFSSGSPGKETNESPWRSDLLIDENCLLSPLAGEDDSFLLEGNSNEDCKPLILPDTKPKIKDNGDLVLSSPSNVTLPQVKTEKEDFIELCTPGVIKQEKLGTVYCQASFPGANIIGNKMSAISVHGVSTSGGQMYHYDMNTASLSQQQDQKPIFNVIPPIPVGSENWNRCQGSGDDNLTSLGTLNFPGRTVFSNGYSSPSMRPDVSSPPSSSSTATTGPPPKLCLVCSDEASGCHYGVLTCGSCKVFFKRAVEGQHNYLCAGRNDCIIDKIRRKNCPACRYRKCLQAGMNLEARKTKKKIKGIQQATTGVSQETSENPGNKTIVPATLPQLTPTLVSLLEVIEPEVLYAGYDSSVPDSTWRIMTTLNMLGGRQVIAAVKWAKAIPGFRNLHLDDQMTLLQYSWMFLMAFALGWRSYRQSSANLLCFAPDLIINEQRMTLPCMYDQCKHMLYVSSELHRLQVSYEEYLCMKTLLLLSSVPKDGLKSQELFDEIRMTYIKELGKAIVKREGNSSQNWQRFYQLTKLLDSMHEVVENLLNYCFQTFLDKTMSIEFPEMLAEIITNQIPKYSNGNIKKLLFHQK
TEST_SUMMARY: Antagonist activity at GR in SW1353/MMTV5 cells assessed as inhibition of dexamethasone-induced luciferase expression
Type: functional, cell-based
PARAMETER_MEASURED: log10(Ki) (log10 of the value in µM)

>  <LINE_NOTATION>
COC[C@]12Cc3cnn(-c4ccc(F)cc4)c3C=C1CCN(S(=O)(=O)c1ccccc1)C2

>  <log10(Ki)>
-1.70

$$$$
>  <LINE_NOTATION>
COCCOC[C@]12Cc3cnn(-c4ccc(F)cc4)c3C=C1CCN(S(=O)(=O)c1ccc(F)cc1)C2

>  <log10(Ki)>
-2.28

$$$$
>  <LINE_NOTATION>
C[C@]12Cc3cnn(-c4ccc(F)cc4)c3C=C1CCN(S(=O)(=O)c1ccc(F)cc1)C2

>  <log10(Ki)>
-0.53

$$$$
>  <LINE_NOTATION>
CC(C)(C)c1ccc(S(=O)(=O)N2CCC3=Cc4c(cnn4-c4ccc(F)cc4)C[C@]3(COCCC#N)C2)cc1

>  <log10(Ki)>
-2.29

$$$$
>  <LINE_NOTATION>
CC(C)(C)c1ccc(S(=O)(=O)N2CCC3=Cc4c(cnn4-c4ccc(F)cc4)C[C@]3(COCCN3CCCCC3)C2)cc1

>  <log10(Ki)>
-1.11

$$$$

====

TARGET_OF_ASSAY: Glucocorticoid receptor (Homo sapiens, UniProt P04150)
Sequence (P04150 whole entry): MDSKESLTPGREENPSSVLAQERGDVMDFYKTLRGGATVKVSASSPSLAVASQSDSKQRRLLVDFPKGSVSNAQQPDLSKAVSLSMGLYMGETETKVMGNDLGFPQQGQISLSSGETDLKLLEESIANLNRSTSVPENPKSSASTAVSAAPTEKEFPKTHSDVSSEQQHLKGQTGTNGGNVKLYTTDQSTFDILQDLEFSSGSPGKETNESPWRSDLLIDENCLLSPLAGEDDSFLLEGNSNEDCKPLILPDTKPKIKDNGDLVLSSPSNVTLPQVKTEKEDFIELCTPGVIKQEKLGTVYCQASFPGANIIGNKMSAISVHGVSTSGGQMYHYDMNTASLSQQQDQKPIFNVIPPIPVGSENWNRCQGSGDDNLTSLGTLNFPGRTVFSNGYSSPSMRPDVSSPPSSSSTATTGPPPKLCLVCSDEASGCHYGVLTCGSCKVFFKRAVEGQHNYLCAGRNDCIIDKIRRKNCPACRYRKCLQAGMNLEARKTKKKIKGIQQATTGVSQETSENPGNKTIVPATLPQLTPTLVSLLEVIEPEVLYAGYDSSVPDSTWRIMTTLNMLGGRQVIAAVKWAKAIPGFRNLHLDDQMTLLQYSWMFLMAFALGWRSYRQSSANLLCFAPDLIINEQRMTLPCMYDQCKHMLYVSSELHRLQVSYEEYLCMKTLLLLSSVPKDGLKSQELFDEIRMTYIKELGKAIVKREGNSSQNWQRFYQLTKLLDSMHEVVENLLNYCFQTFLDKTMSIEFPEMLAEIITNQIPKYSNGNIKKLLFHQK
TEST_SUMMARY: Displacement of [3H]dexamethasone from human recombinant GR

>  <LINE_NOTATION>
CCOC[C@]12Cc3cnn(-c4ccc(F)cc4)c3C=C1CCN(S(=O)(=O)c1ccc(C(C)(C)C)cc1)C2

>  <Ki (nM)>
0.8

$$$$
>  <LINE_NOTATION>
CC(C)(C)c1ccc(S(=O)(=O)N2CCC3=Cc4c(cnn4-c4ccc(F)cc4)C[C@]3(COCCC#N)C2)cc1

>  <Ki (nM)>
0.8

$$$$
>  <LINE_NOTATION>
CCCOC[C@]12Cc3cnn(-c4ccc(F)cc4)c3C=C1CCN(S(=O)(=O)c1ccc(C(F)(F)F)cc1)C2

>  <Ki (nM)>
0.9

$$$$
